# System: S. aureus ATCC 33591
# procedure.summary: MIC determination in BHI broth microdilution
# Assay type: cell-based
# measurement.context: Staphylococcus aureus, ATCC33591, 18 h
Reported MIC values for the following compounds.

{"compound": "CN[C@H](CC(C)C)C(=O)N[C@H]1C(=O)N[C@@H](CC(N)=O)C(=O)N[C@H]2C(=O)NC3C(=O)N[C@H](C(=O)N[C@@H](C(=O)NCCN)c4cc(O)cc(O)c4-c4cc3ccc4O)[C@H](O)c3ccc(c(Cl)c3)Oc3cc2cc(c3OC2OC(CN)C(O)C(O)C2OC2CC(C)(NCc3ccc(OCc4ccc(Cl)c(Cl)c4)cc3)C(O)C(C)O2)Oc2ccc(cc2Cl)[C@H]1O (stereo partly shown)", "unit.name": "µg/mL", "MIC": 12.5}
{"compound": "CN[C@H](CC(C)C)C(=O)N[C@H]1C(=O)N[C@@H](CC(N)=O)C(=O)N[C@H]2C(=O)N[C@H]3C(=O)N[C@H](C(=O)N[C@@H](C(=O)NCCCCN)c4cc(O)cc(O)c4-c4cc3ccc4O)[C@H](O)c3ccc(c(Cl)c3)Oc3cc2cc(c3OC2OC(CO)C(O)C(O)C2OC2CC(C)(NCc3ccc(-c4ccc(Cl)cc4)cc3)C(O)C(C)O2)Oc2ccc(cc2Cl)[C@H]1O (stereo partly shown)", "unit.name": "µg/mL", "MIC": 0.781}
{"compound": "CN[C@H](CC(C)C)C(=O)N[C@H]1C(=O)N[C@@H](CC(N)=O)C(=O)N[C@H]2C(=O)NC3C(=O)N[C@H](C(=O)N[C@@H](C(=O)NCCCCN)c4cc(O)cc(O)c4-c4cc3ccc4O)[C@H](O)c3ccc(c(Cl)c3)Oc3cc2cc(c3OC2OC(CN=[N+]=[N-])C(O)C(O)C2OC2CC(C)(NCc3ccc(-c4ccc(Cl)cc4)cc3)C(O)C(C)O2)Oc2ccc(cc2Cl)[C@H]1O (stereo partly shown)", "unit.name": "µg/mL", "MIC": 3.12}
{"compound": "CN[C@H](CC(C)C)C(=O)N[C@H]1C(=O)N[C@@H](CC(N)=O)C(=O)N[C@H]2C(=O)NC3C(=O)N[C@H](C(=O)N[C@@H](C(=O)NCCN)c4cc(O)cc(O)c4-c4cc3ccc4O)[C@H](O)c3ccc(c(Cl)c3)Oc3cc2cc(c3OC2OC(CN=[N+]=[N-])C(O)C(O)C2OC2CC(C)(NCc3ccc(OCc4ccc(Cl)c(Cl)c4)cc3)C(O)C(C)O2)Oc2ccc(cc2Cl)[C@H]1O (stereo partly shown)", "unit.name": "µg/mL", "MIC": 1.56}

Data credit: patent US6699836B2
